Provenance of the data: patent US9102638B2

Tested on: A549/ATCC
Test: In vitro cytotoxicity, NCI screen: A549/ATCC (Non-small cell lung)
Type: cell-based
Conditions: Homo sapiens, Non-small cell lung panel, NCI protocol, read-out: GI50 values (μM conc.)
RECORDED METRIC: GI50 (µM)
Numbers only, in µM.

>>> number("COc1ccc(/C=C\\c2cc(OC)c(OC)c(OC)c2)cc1OCC(=O)Nc1nc2ccccc2s1 [Compound 8a]")
0.34
>>> number("COc1ccc(/C=C/C(=O)c2cc(OC)c(OC)c(OC)c2)cc1OCC(=O)Nc1nc2ccc(OC(F)(F)F)cc2s1 [Compound 9j]")
1.99
>>> number("COc1ccc(/C=C\\c2cc(OC)c(OC)c(OC)c2)cc1OCC(=O)Nc1nc2ccc(F)cc2s1 [Compound 8e]")
5.99

Consider the following items and state reported GI50 for each.
1. COc1ccc(/C=C\c2cc(OC)c(OC)c(OC)c2)cc1OCC(=O)Nc1nc2ccc(C(F)(F)F)cc2s1 [Compound 8i]
2. COc1ccc(/C=C\c2cc(OC)c(OC)c(OC)c2)cc1OCC(=O)Nc1nc2ccc(OC(F)(F)F)cc2s1 [Compound 8j]
3. COc1ccc(C2CC(c3cc(OC)c(OC)c(OC)c3)=NN2C(C)=O)cc1OCC(=O)Nc1nc2ccc(C(F)(F)F)cc2s1 (stereo not shown) [Compound 10i]
4. COc1ccc2nc(NC(=O)COc3cc(/C=C\c4cc(OC)c(OC)c(OC)c4)ccc3OC)sc2c1 [Compound 8g]

Result ::
4.46
6
2.16
5.19
